Measured polymerase ribozyme fitness (log ratio), listed per entry for reference.
B1: TPR 5TU (parent)
chain: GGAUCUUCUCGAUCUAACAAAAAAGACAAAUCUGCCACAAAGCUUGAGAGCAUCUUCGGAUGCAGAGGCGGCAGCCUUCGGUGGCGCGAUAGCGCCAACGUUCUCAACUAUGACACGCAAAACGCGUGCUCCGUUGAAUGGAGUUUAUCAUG

# Variants of: B1
# experiment_notes: polymerase ribozyme fitness, log enrichment relative to wild type (log ratio); higher = more active; in vitro selection for triplet polymerase activity
Fewer inactive variants are shown than the library holds.
experimental_endpoint: polymerase ribozyme fitness (log ratio)

changes	experimental_endpoint	result
A30C A142C U144C	polymerase ribozyme fitness (log ratio)	≤ -4.2
U53A G83A C114U	polymerase ribozyme fitness (log ratio)	-3.28
A41C A89U C95U G124A C125G	polymerase ribozyme fitness (log ratio)	-1.75
C10U G84A U101A A115U A121G G124A	polymerase ribozyme fitness (log ratio)	≤ -4.2
A17G G58C U61G G71U G86C U104G G143C	polymerase ribozyme fitness (log ratio)	≤ -4.2
A39C G88U A97G A122G	polymerase ribozyme fitness (log ratio)	≤ -4.2
C8A A22C C27U U44C C51U C79A C93G C95G C105G	polymerase ribozyme fitness (log ratio)	≤ -4.2
C10U C54A G88U A115G	polymerase ribozyme fitness (log ratio)	≤ -4.2
A17G C35U C36U C95U	polymerase ribozyme fitness (log ratio)	≤ -4.2
A52G U82C G92U C93U G126A	polymerase ribozyme fitness (log ratio)	-1.76
G84A G143U	polymerase ribozyme fitness (log ratio)	-2.51
A12G A17G C93U A120G	polymerase ribozyme fitness (log ratio)	-0.897
U55A U135A	polymerase ribozyme fitness (log ratio)	-1.74
U31A U90G	polymerase ribozyme fitness (log ratio)	≤ -4.2
A23U A40G U77A G84A U146G	polymerase ribozyme fitness (log ratio)	≤ -4.2
U77G C103G	polymerase ribozyme fitness (log ratio)	≤ -4.2
U15A A19C A29U G50A C95U A142U	polymerase ribozyme fitness (log ratio)	≤ -4.2
A40U C125U G128C	polymerase ribozyme fitness (log ratio)	≤ -4.2
G59C	polymerase ribozyme fitness (log ratio)	0.0972
C35U U56A U61A C63U A64G	polymerase ribozyme fitness (log ratio)	≤ -4.2
A16G G42C C54G G70A C87A C99U A113C G141U U151C	polymerase ribozyme fitness (log ratio)	≤ -4.2
A30C A47G G70U U102G G126U G152U	polymerase ribozyme fitness (log ratio)	≤ -4.2
A3C A28G A37U A52U G83U	polymerase ribozyme fitness (log ratio)	≤ -4.2
A29C U31G C87A U139G	polymerase ribozyme fitness (log ratio)	≤ -4.2
C8A A19G G62A G67C C93A A97U G112U A142G U148A	polymerase ribozyme fitness (log ratio)	≤ -4.2
A28U U53G A66G C69A C79G G94C C108G C129U A137U	polymerase ribozyme fitness (log ratio)	≤ -4.2
U13A A20G A28G G48A U146C	polymerase ribozyme fitness (log ratio)	≤ -4.2
G34A U145A	polymerase ribozyme fitness (log ratio)	-0.571
A49C C51U G133A G143U	polymerase ribozyme fitness (log ratio)	≤ -4.2
U33A U61A	polymerase ribozyme fitness (log ratio)	-3.64
A22U A26C U45A G48U U82G C87G C129G	polymerase ribozyme fitness (log ratio)	≤ -4.2
C35G U55G U61A C79G C93G A107G	polymerase ribozyme fitness (log ratio)	≤ -4.2
A22U C95A C96A C99U	polymerase ribozyme fitness (log ratio)	-1.54
C54G G140A U146A	polymerase ribozyme fitness (log ratio)	≤ -4.2
U56A C76U	polymerase ribozyme fitness (log ratio)	0.105
C96U U139A	polymerase ribozyme fitness (log ratio)	-3.94
U31G A41C C75U C85G G88C A137U	polymerase ribozyme fitness (log ratio)	≤ -4.2
U55G C57A C69U U109G C116A	polymerase ribozyme fitness (log ratio)	-0.0851
U7C A73G U82A G136C	polymerase ribozyme fitness (log ratio)	≤ -4.2
U7C G11C G59A G71C C76U G84U A138C	polymerase ribozyme fitness (log ratio)	≤ -4.2
A30G G50C C51A G84A C87G G100U A121G	polymerase ribozyme fitness (log ratio)	≤ -4.2
A3C C10G A29U U33G C38U C63U	polymerase ribozyme fitness (log ratio)	≤ -4.2
C54U C76U C93G A150G	polymerase ribozyme fitness (log ratio)	-4.08
G126A C132G	polymerase ribozyme fitness (log ratio)	-2.68
G81A C85A	polymerase ribozyme fitness (log ratio)	0.102
A22G A106G A122C G124U	polymerase ribozyme fitness (log ratio)	-0.81

The reported numbers originate from the RNAGym collection of RNA variant scans (doi:10.1073/pnas.2313332121).
